- experimental.system: GIRK1/2 (Homo sapiens, UniProt P48051+P48549)
- Sequence (P48549 1-501): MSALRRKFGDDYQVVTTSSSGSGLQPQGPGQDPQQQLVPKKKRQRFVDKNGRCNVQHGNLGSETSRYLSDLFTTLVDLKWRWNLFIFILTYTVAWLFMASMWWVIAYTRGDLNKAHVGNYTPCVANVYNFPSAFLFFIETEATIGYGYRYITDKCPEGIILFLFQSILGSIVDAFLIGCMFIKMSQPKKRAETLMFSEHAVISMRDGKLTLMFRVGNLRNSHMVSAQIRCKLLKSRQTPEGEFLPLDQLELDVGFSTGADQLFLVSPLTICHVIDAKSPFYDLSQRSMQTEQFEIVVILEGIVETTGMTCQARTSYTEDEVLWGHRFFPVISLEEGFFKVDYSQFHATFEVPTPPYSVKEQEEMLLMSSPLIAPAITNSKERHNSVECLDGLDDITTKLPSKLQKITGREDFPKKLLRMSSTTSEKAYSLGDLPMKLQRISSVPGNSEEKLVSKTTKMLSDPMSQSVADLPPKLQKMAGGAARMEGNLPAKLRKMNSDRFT
- Sequence (P48051 1-423): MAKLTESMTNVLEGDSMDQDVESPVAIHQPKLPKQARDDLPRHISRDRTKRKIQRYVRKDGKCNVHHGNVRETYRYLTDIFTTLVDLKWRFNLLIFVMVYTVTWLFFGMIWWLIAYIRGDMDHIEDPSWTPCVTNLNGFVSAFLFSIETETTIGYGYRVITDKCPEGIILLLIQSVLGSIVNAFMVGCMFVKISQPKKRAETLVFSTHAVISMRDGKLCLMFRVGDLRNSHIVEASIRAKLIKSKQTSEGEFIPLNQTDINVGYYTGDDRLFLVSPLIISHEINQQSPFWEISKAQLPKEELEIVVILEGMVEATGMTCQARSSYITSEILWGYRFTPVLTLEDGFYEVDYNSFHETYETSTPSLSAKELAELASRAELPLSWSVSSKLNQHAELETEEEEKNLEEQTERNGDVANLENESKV
- procedure.summary: Thallium flux assay protocol (Examples 2 and 3), GIRK1/GIRK2 HEK-293 cells
- Type: cell-based
- Parameters: expressed in transfected cells; host or cells: HEK-293
- details: standardized to 2 (ML297) = 100%
- Description: Compounds were dissolved in DMSO, transferred to 384-well polypropylene plates, and serially diluted in DMSO using and Agilent Bravo (11-points, threefold dilutions). Serially diluted plates were dispensed to daughter plates using a Labcyte Echo555 and diluted to twofold over their target assay concentration with 20 mM HEPES-buffered (pH 7.4) Hanks Balanced Salt Solution (HBSS), hereafter referred to as Assay Buffer, using a Thermo Fisher Combi. […] Fluorescence data were collected at 1 Hz. […]

# molecule, experimental.system, scale.unit, GIRK1/2 efficacy (activator)
data = [
    ("Cc1cc(NC(=O)Nc2ccc(F)c(F)c2)n(Cc2ccccc2)n1 [5d]", "GIRK1/2 (Homo sapiens, UniProt P48051+P48549)", "%", 87),
    ("Cc1ccc(NC(=O)Nc2ccc(C(F)(F)F)cc2)cc1S(=O)(=O)N(C)C [6h]", "GIRK1/2 (Homo sapiens, UniProt P48051+P48549)", "%", 26),
    ("Cc1ccc(NC(=O)Cc2ccccc2Cl)cc1S(=O)(=O)N(C)C [compound 3]", "GIRK1/2 (Homo sapiens, UniProt P48051+P48549)", "%", 110),
    ("Cc1ccc(NC(=O)Cc2ccccc2Br)cc1S(=O)(=O)N(C)C [3a]", "GIRK1/2 (Homo sapiens, UniProt P48051+P48549)", "%", 108),
]
